For each entry below, report its surface tension liquid-gas value.
# PROCEDURE TEXT: xn = mol fraction of the nth substance listed
# CONDITION LABEL: 318.15 K, Wilhelmy plate method, x1 = 0.1
The response must be a number in mN/m with no trailing unit.

The molecule listed as CCC(=O)OCc1ccccc1 [benzyl propanoate] + CCO has a reported surface tension liquid-gas of 22.1

Documented surface tension liquid-gas of COC(=O)c1ccccc1 [methyl benzoate] + CCO : 21.9

Recorded surface tension liquid-gas (molecule CC(=O)OCc1ccccc1 [benzyl ethanoate] + CCO ): 22

molecule CCOC(=O)CC(C)C [ethyl 3-methylbutanoate] + CCO , surface tension liquid-gas observed: 20.72

Measured surface tension liquid-gas of CCOC(=O)c1ccccc1O [ethyl 2-hydroxybenzoate] + CCO : 21.97

GET /value?item= CCOC(=O)CC(C)=O [ethyl 3-oxobutanoate] + CCO &field=surface tension liquid-gas returns 21.46

Numbers sourced from the NIST ThermoML archive (doi:10.1021/je060139a).
